Data provenance: patent US20240018140A1

- target-of-assay: glucosylceramide synthase (GCS) (Homo sapiens (Human))
- assay-protocol: UDP-Glo glucosylceramide synthase biochemical assay
- test-settings: endogenous GCS in Golgi preparations from human A375 malignant melanoma skin cells; C6 ceramide and UDP-glucose substrates; 20 h incubation; UDP detected by luminescence
pEC50: −log10 of the molar value.
Note to self: values exactly at 8 are MET. So pEC50 at or above 8 is MET, below is NOT MET.

CC1(NC(=O)c2cn3cc(Cl)cc(-c4ccccc4OCC(F)(F)F)c3n2)CCCOC1 (racemic): MET

Dear colleague, could you confirm whether CC1(C)OCC1NC(=O)c1cn2cccc(-c3ccccc3OCC(F)(F)F)c2n1 (stereo not drawn) has pEC50 at or above 8?
NOT MET

Dear colleague, could you confirm whether `COc1cc(-c2ccccc2OCC(F)(F)F)c2nc(C(=O)NC(C)(C)C(F)(F)F)cn2c1` has pEC50 at or above 8?
MET

====

- target-of-assay: glucosylceramide synthase (GCS) (Homo sapiens (Human), UniProt Q16739)
- Sequence (Q16739 whole entry): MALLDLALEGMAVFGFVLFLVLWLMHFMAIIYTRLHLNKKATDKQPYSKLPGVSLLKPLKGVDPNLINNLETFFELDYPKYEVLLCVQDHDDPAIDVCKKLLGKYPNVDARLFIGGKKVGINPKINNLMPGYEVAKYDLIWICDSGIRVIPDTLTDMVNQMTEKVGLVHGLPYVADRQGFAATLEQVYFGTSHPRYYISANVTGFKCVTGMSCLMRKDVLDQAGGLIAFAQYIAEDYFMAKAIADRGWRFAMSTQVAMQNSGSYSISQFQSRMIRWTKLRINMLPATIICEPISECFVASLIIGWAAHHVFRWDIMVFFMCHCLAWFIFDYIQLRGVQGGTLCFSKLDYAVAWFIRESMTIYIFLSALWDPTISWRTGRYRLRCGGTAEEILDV
- assay-protocol: UDP-Glo glucosylceramide synthase biochemical assay
- test-settings: endogenous GCS in Golgi preparations from human A375 malignant melanoma skin cells; C6 ceramide and UDP-glucose substrates; 20 h incubation; UDP detected by luminescence
experimental-readout: pEC50
Give bare numbers, as −log10 of the molar value.

COc1ccc(Cl)cc1-c1cccn2cc(C(=O)NC34CCC(O)(CC3)C4)nc12 [Compound 30]: 8.25
O=C(NC12CC(CO)(C1)C2)c1cn2cccc(-c3ccccc3OCC(F)(F)F)c2n1 [Compound 47]: 8.04
CC1(C)CN=C(c2cn3cc(Cl)cc(-c4ccccc4OCC(F)(F)F)c3n2)O1 [Compound 69]: 7.82

Your task in this section: give pEC50 for each listed record.
1. CC(C)(O)c1cn2cc(Cl)cc(-c3ccccc3OCC(F)(F)F)c2n1 [Compound 66]
2. CC1(CO)CN=C(c2cn3cc(Cl)cc(-c4ccccc4OCC(F)(F)F)c3n2)O1 (stereo not shown) [Compound 71]
3. O=C(N[C@H]1CC[C@H](O)CC1)c1nc2c(-c3ccccc3OCC(F)(F)F)cccn2c1F [Compound 32]
4. NCc1cn2cccc(-c3ccccc3OCC(F)(F)F)c2n1 [Compound 80]

7.82
7.80
7.33
6.48

====

- target-of-assay: UniProtKB Q16739
- assay-protocol: UDP-Glo glucosylceramide synthase biochemical assay
- test-settings: endogenous GCS in Golgi preparations from human A375 malignant melanoma skin cells; C6 ceramide and UDP-glucose substrates; 20 h incubation; UDP detected by luminescence
So I've got a bunch of compounds here, and I need their pEC50 values.
Give bare numbers, as −log10 of the molar value.

In the examples that follow, each entry is paired with its recorded pEC50.
CC(C)(CO)NC(=O)c1cn2cccc(-c3ccccc3OCC(F)(F)F)c2n1: 8.01
OCc1cn2cc(C(F)(F)F)cc(-c3ccccc3OCC(F)(F)F)c2n1: 7.77

Field: next compound
get_value(item= `N#Cc1cc(-c2ccccc2OCC(F)(F)F)c2nc(C(=O)N[C@H]3CC[C@H](O)CC3)cn2c1` , readout=pEC50) returns 7.85
